assay: Cytotoxicity on uninfected cells, MTT assay; assay type: cell-based; settings: human, uninfected CEM-SS cells, mean ± SD, four independent experiments
readoutType: CC50

CC50 measured on C=Cc1nc2c(N)ncnc2n1[C@H]1C[C@H](O)[C@@H](CO)O1 = > 100 µM

CC50 measured on CCN(CC)c1nc2c(N)ncnc2n1[C@H]1C[C@H](O)[C@@H](CO)O1 = > 100 µM

CC50 measured on CN(C)c1nc2c(N)ncnc2n1[C@H]1C[C@H](O)[C@@H](CO)O1 = > 100 µM

CC50 measured on CC(C)CNc1nc2c(N)ncnc2n1[C@H]1C[C@H](O)[C@@H](CO)O1 = > 100 µM
